Test system: isolated rings of aortae
Assay: Aortic ring relaxation
Parameters: species or system rat
Conditions: intact aortic rings; read-out: EC50 for relaxation
Procedure: Isolated rings of aortae from male Sprague-Dawley rats (250–300 g) were prepared for isometric tension measurements and were equilibrated for 1 h at an optimal resting tension of 10 mN. Tissues were contracted submaximally with 0.3 µM phenylepinephrine, and after 10–15 m cumulative concentration-response curves for SERMs (0.01–30 µM) were obtained. […]
outcome measure: EC50 (nM)
Give bare numbers, in nM.

## Input For the compound shown here, `O=[N+]([O-])OCCCC1CCN(CCOc2ccc(Oc3c(-c4ccc(O)cc4)sc4cc(O)ccc34)cc2)CC1` , give the reported EC50.
## Output 130

----------
system: Ishikawa endometrial cancer cell line; experiment: ER-mediated transcriptional activity (antiestrogen) in Ishikawa cells; format: cell-based; details: read-out: antiestrogen potency IC50, ER-mediated transcriptional activity
outcome measure: pIC50
One number for each entry, as −log10 of the molar value.

Would you mind giving pIC50 for every molecule in the list below?
1. Oc1ccc(-c2sc3cc(O)ccc3c2Oc2ccc(OCCN3CCCCC3)cc2)cc1 [DMA, desmethylarzoxifene]
2. O=[N+]([O-])OCCCC1CCN(CCOc2ccc(Oc3c(-c4ccc(O)cc4)sc4cc(O)ccc34)cc2)CC1 [NO-DMA]

## Output
[10.00, 8.41]

----------
molecular target: ERβ (Homo sapiens, UniProt Q92731)
Sequence (Q92731 whole entry, species assumed): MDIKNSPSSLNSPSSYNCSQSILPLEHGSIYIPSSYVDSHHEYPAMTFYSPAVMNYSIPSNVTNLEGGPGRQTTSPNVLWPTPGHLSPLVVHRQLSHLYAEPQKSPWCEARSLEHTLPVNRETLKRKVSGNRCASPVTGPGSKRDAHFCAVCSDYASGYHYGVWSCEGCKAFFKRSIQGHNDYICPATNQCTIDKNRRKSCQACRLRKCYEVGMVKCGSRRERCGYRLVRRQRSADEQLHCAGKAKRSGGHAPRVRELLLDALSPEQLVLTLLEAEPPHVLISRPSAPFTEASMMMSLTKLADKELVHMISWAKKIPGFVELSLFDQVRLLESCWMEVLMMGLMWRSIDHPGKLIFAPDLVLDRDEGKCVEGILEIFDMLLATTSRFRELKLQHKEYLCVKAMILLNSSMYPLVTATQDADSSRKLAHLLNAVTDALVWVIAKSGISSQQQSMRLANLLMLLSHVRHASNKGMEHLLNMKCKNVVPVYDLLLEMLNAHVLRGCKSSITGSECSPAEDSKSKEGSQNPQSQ
So I've got a bunch of compounds here, and I need their IC50 values.
Numbers only, in nM.

Oc1ccc(-c2sc3cc(O)ccc3c2Oc2ccc(OCCN3CCCCC3)cc2)cc1    9.6

## Input Give the measured IC50 of `O=[N+]([O-])OCCCC1CCN(CCOc2ccc(Oc3c(-c4ccc(O)cc4)sc4cc(O)ccc34)cc2)CC1` .
## Output 24.4

----------
tested on: isolated rings of aortae; test: Aortic ring relaxation; design: species or system rat; conditions: tissues treated with L-NAME 100 µM; read-out: EC50 for relaxation, L-NAME
outcome measure: EC50 (nM)
Give bare numbers, in nM.

## Input Requested read-out: EC50. Entry: `O=[N+]([O-])OCCCC1CCN(CCOc2ccc(Oc3c(-c4ccc(O)cc4)sc4cc(O)ccc34)cc2)CC1`
## Output 1000

----------
system: isolated rings of aortae; assay: Aortic ring relaxation; parameters: species or system rat; conditions: intact aortic rings contracted with phenylepinephrine; mean, S.D.; read-out: EC50 for relaxation
outcome measure: EC50 (µM)
Numbers only, in µM.

## Input # get_value(readout='EC50', item= `Oc1ccc(-c2sc3cc(O)ccc3c2Oc2ccc(OCCN3CCCCC3)cc2)cc1` )
## Output 3.5
